# IC50 listing for each entry below
assayed.target: recombinant human CYP11B2 (Homo sapiens)
Construct: made in house; host or cells: V79-4 cells (enzyme enriched microsomal fraction of cell lysates)
Sequence (P19099 25-503): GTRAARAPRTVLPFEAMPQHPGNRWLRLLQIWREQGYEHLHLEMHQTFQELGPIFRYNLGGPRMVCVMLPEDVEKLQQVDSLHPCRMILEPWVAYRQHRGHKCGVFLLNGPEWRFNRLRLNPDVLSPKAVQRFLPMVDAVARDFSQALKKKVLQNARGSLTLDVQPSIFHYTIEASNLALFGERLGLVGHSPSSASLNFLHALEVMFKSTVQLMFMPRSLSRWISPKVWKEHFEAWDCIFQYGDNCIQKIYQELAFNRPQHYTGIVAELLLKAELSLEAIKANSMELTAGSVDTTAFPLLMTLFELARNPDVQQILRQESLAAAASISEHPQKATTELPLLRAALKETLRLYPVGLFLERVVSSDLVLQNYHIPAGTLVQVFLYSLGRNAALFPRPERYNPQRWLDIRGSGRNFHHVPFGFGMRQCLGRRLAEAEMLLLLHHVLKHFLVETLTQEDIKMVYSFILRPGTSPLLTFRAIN
measurement.protocol: CYP11B2 enzyme assay, enzyme enriched microsomes from V79-4 cells, aldosterone by LC-MS
Type: biochemical
protocol.conditions: Table 3 comparison; read-out: CYP11B2 IC50
reported.endpoint: IC50 (nM)

# substance.smiles, assayed.target, value
records = [
    ("Fc1cc2nc(-c3cncnc3C(F)F)n(C3CC3)c2cc1F", "recombinant human CYP11B2 (Homo sapiens)", 17),
    ("Fc1ccc2nc(-c3cncnc3)n(C3CC3)c2c1", "recombinant human CYP11B2 (Homo sapiens)", 40),
    ("Fc1cc2nc(-c3cncnc3C(F)(F)F)n(C3CC3)c2cc1F", "recombinant human CYP11B2 (Homo sapiens)", 32),
    ("Cc1ncncc1-c1nc2cc(F)c(F)cc2n1C1CC1", "recombinant human CYP11B2 (Homo sapiens)", 17),
]

---

assayed.target: recombinant human CYP11B1 (Homo sapiens)
Construct: made in house; host or cells: V79-4 cells (enzyme enriched microsomal fraction of cell lysates)
measurement.protocol: CYP11B1 enzyme assay, enzyme enriched microsomes from V79-4 cells, cortisol by LC-MS
Type: biochemical
protocol.conditions: IC50 ranges; run at Km of 11-deoxycortisol; read-out: hCYP11B1 IC50
reported.endpoint: IC50

# substance.smiles, assayed.target, value
rows = [
    ("FC(F)(F)c1ncncc1-c1nc2ccc(Cl)nc2n1C1CC1", "recombinant human CYP11B1 (Homo sapiens)", "1 to 10 µM"),
    ("CS(=O)(=O)c1ccc2nc(-c3cncnc3)n(C3CC3)c2c1", "recombinant human CYP11B1 (Homo sapiens)", "> 10 µM"),
    ("Cc1ncncc1-c1nc2cnc(Cl)cc2n1C1CC1", "recombinant human CYP11B1 (Homo sapiens)", "> 10 µM"),
    ("Cc1ncc(-c2nc3ccc(F)cc3n2C2CC2)cn1", "recombinant human CYP11B1 (Homo sapiens)", "> 10 µM"),
    ("CCc1ncncc1-c1nc2ccc(C#N)cc2n1C1CC1", "recombinant human CYP11B1 (Homo sapiens)", "1 to 10 µM"),
    ("N#Cc1ccc2nc(-c3cncnc3)n(CC(F)(F)F)c2c1", "recombinant human CYP11B1 (Homo sapiens)", "> 10 µM"),
    ("Fc1ccc2nc(-c3cnc(Cl)nc3Cl)n(C3CC3)c2c1", "recombinant human CYP11B1 (Homo sapiens)", "> 10 µM"),
    ("FC(F)c1ncncc1-c1nc2ccc(Cl)nc2n1C1CC1", "recombinant human CYP11B1 (Homo sapiens)", "1 to 10 µM"),
    ("O=C(O)c1ccc2nc(-c3cncnc3C(F)(F)F)n(C3CC3)c2c1", "recombinant human CYP11B1 (Homo sapiens)", "> 10 µM"),
    ("Cc1ncncc1-c1nc2ccc(C#N)nc2n1C1CC1", "recombinant human CYP11B1 (Homo sapiens)", "1 to 10 µM"),
]

---

# IC50 listing for each entry below
assayed.target: recombinant human CYP11B1 (Homo sapiens, UniProt P15538)
Construct: made in house; host or cells: V79-4 cells (enzyme enriched microsomal fraction of cell lysates)
measurement.protocol: CYP11B1 enzyme assay, enzyme enriched microsomes from V79-4 cells, cortisol by LC-MS
Type: biochemical
protocol.conditions: IC50 ranges; run at Km of 11-deoxycortisol; read-out: hCYP11B1 IC50
reported.endpoint: IC50

# compound, value
rows = [
    ("CCc1ncncc1-c1nc2ccc(F)cc2n1CC [Example 16]", "1 to 10 µM"),
    ("N#Cc1ccc2nc(-c3cncnc3)n(C3CC3)c2c1 [Example 3]", "1 to 10 µM"),
    ("COc1ccc2nc(-c3cncnc3C)n(C3CC3)c2n1 [Example 58]", "> 10 µM"),
    ("FC(F)(F)Oc1ccc2nc(-c3cncnc3)n(C3CC3)c2c1 [Example 42]", "1 to 10 µM"),
    ("FC(F)c1ncncc1-c1nc2ccc(Cl)cc2n1C1CC1 [Example 50]", "1 to 10 µM"),
]

---

assayed.target: recombinant human CYP11B2 (Homo sapiens)
Construct: made in house; host or cells: V79-4 cells (enzyme enriched microsomal fraction of cell lysates)
measurement.protocol: CYP11B2 enzyme assay, enzyme enriched microsomes from V79-4 cells, aldosterone by LC-MS
Assay type: biochemical
protocol.conditions: IC50 ranges; run at Km of 11-deoxycorticosterone; read-out: hCYP11B2 IC50
# IC50 listing for each entry below
reported.endpoint: IC50

# substance.smiles, value
records = [
    ("Clc1ccc2nc(-c3cncnc3)n(C3CC3)c2c1", "1 to 100 nM"),
    ("Cc1ncnc(C)c1-c1nc2ccc(F)cc2n1C1CC1", "> 10000 nM"),
    ("CC(C)(O)c1ncncc1-c1nc2ccc(C#N)cc2n1C1CC1", "100 to 1000 nM"),
    ("N#Cc1ccc2nc(-c3cncnc3C(F)F)n(C3CC3)c2c1", "1 to 100 nM"),
    ("CCCc1ncncc1-c1nc2ccc(F)cc2n1C1CC1", "1 to 100 nM"),
]

---

assayed.target: recombinant human CYP11B2 (Homo sapiens)
Construct: made in house; host or cells: V79-4 cells (enzyme enriched microsomal fraction of cell lysates)
measurement.protocol: CYP11B2 enzyme assay, enzyme enriched microsomes from V79-4 cells, aldosterone by LC-MS
Assay type: biochemical
protocol.conditions: IC50 ranges; run at Km of 11-deoxycorticosterone; read-out: hCYP11B2 IC50
# IC50 listing for each entry below

# substance.smiles, IC50
rows = [
    ("Cc1ncncc1-c1nc2ccc(C#N)cc2n1C1CC1", "1 to 100 nM"),
    ("Fc1cc2nc(-c3cncnc3C(F)(F)F)n(C3CC3)c2cc1F", "1 to 100 nM"),
    ("Fc1ccc2nc(-c3cncnc3)n(C3CC3)c2c1F", "100 to 1000 nM"),
    ("Fc1ccc2nc(-c3cnc(Cl)nc3Cl)n(C3CC3)c2c1", "1000 to 10000 nM"),
    ("c1ncc(-c2nc3c(n2C2CC2)CCCC3)cn1", "1000 to 10000 nM"),
    ("N#Cc1ncncc1-c1nc2ccc(F)cc2n1C1CC1", "1 to 100 nM"),
]

---

# pIC50 listing for each entry below
assayed.target: recombinant human CYP11B1 (Homo sapiens, UniProt P15538)
Construct: made in house; host or cells: V79-4 cells (enzyme enriched microsomal fraction of cell lysates)
Sequence (P15538 25-503): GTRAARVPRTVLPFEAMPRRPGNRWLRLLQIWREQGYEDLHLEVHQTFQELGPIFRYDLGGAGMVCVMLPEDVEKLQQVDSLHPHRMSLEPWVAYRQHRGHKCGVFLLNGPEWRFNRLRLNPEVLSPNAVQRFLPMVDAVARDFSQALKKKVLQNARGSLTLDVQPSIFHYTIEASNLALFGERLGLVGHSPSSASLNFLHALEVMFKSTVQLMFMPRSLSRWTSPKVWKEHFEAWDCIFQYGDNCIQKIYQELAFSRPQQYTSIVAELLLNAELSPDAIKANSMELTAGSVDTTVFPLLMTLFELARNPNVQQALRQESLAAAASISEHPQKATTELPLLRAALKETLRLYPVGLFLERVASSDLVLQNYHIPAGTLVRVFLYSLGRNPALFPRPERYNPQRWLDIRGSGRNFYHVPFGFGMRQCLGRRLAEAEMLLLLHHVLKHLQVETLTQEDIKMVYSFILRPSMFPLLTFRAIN
measurement.protocol: CYP11B1 enzyme assay, enzyme enriched microsomes from V79-4 cells, cortisol by LC-MS
Assay type: biochemical
protocol.conditions: IC50 ranges; run at Km of 11-deoxycortisol; read-out: hCYP11B1 IC50
pIC50: −log10 of the molar value.

# substance.smiles, pIC50
measured = [
    ("CCn1c(-c2cncnc2C(F)F)nc2ccc(C#N)cc21", "< 5.00"),
    ("CC(C)c1ncncc1-c1nc2ccc(F)cc2n1C1CC1", "5.00 to 6.00"),
    ("CCn1c(-c2cncnc2C(F)(F)F)nc2ccc(C#N)cc21", "5.00 to 6.00"),
    ("N#Cc1ccc2nc(-c3cncnc3C(F)F)n(C3CC3)c2n1", "5.00 to 6.00"),
    ("N#Cc1ccc2nc(-c3cncnc3C(F)(F)F)n(C3CC3)c2n1", "5.00 to 6.00"),
    ("Fc1cc2nc(-c3cncnc3)n(C3CC3)c2cc1F", "5.00 to 6.00"),
    ("CCn1c(-c2cncnc2C(F)(F)F)nc2ccc(Cl)nc21", "< 5.00"),
    ("CNc1ncncc1-c1nc2cc(F)c(F)cc2n1C1CC1", "6.00 to 7.00"),
    ("Fc1cc2nc(-c3cncnc3C(F)F)n(C3CC3)c2cc1F", "5.00 to 6.00"),
    ("Cc1ncncc1-c1nc2ccc(C#N)cc2n1CC(F)(F)F", "< 5.00"),
    ("CN(C)c1ncncc1-c1nc2cc(F)c(F)cc2n1C1CC1", "5.00 to 6.00"),
    ("CCn1c(-c2cncnc2C(F)(F)F)nc2ccc(C#N)nc21", "< 5.00"),
    ("CCn1c(-c2cncnc2)cc2ccc(Cl)cc21", "6.00 to 7.00"),
    ("N#Cc1ccc2nc(-c3cncnc3C(F)(F)F)n(C3CC3)c2c1", "5.00 to 6.00"),
    ("CCn1c(-c2cncnc2C(C)C)nc2ccc(C#N)cc21", "5.00 to 6.00"),
    ("Cc1ncncc1-c1nc2ccc(Cl)nc2n1C1CC1", "5.00 to 6.00"),
    ("Fc1cc2nc(-c3cncnc3NCCC(F)(F)F)n(C3CC3)c2cc1F", "6.00 to 7.00"),
    ("CC(F)(F)c1ncncc1-c1nc2ccc(C#N)cc2n1C1CC1", "5.00 to 6.00"),
    ("Fc1ccc2nc(-c3cncnc3)n(C3CC3)c2c1F", "5.00 to 6.00"),
    ("CC(C)c1ncncc1-c1nc2ccc(Cl)cc2n1C1CC1", "5.00 to 6.00"),
    ("Cc1ncncc1-c1nc2ccc(F)cc2n1C1CC1", "5.00 to 6.00"),
    ("Fc1ccc2nc(-c3cncnc3)n(C3CC3)c2c1", "5.00 to 6.00"),
    ("CNc1ncncc1-c1nc2ccc(C#N)cc2n1C1CC1", "6.00 to 7.00"),
    ("CCc1ncncc1-c1nc2cc(F)c(F)cc2n1C1CC1", "5.00 to 6.00"),
    ("CC(=O)NCc1ncncc1-c1nc2ccc(F)cc2n1C1CC1", "< 5.00"),
    ("c1ncc(-c2nc3c(n2C2CC2)CCCC3)cn1", "< 5.00"),
    ("CC(=O)NCCc1ncncc1-c1nc2cc(F)c(F)cc2n1C1CC1", "< 5.00"),
    ("CCCc1ncncc1-c1nc2ccc(C#N)cc2n1C1CC1", "6.00 to 7.00"),
    ("N#Cc1ccc2nc(-c3cncnc3C(F)F)n(C3CC3)c2c1", "5.00 to 6.00"),
    ("CCn1c(-c2cncnc2C(F)(F)F)nc2cc(F)c(F)cc21", "< 5.00"),
    ("Clc1ccc2nc(-c3cncnc3)n(C3CC3)c2c1", "5.00 to 6.00"),
]
